Test system: K4 kissing-loop RNA reporter;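 further: bound reporter read as fluorescence of individual clusters on recovered sequencing chips by microscopy, with normalized cluster intensities fitted with a binding model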
Experiment: apparent KD of K4 kissing-loop reporter; higher = weaker reporter binding
Conditions: Eterna round: R107; input ligand: none
Exercise: for every item that follows, state its recorded apparent KD of K4 kissing-loop reporter.
Please respond with the number in nM and leave the unit unwritten.

For the sequence GUACGCUCUCGAGUGAUGUUCGGUAAUAGUUAGGAUAUCGCUUUUGCGAGAAGGAACUGAAUGAGGAAACUCGUUCUGAGUGUAC [FMN A 18] , give its measured apparent KD of K4 kissing-loop reporter value.
342

Kindly indicate its recorded apparent KD of K4 kissing-loop reporter. Item: GUAUAUCGAACUGAUACCAGAGAAUAAAGCAGUGAUGUUGCAUAUAUAAAUAAGACUCGACUCCCUUGGCAGCGGGAAGAUAUAC [On purpose 1]
197

Read the entry GGCGUCUAAAAGUGCCUAGAGAGAAAGGAUACCAGCACCCGGCGGUGCCCUUGGCAGCCUAGCCCAGUGAUGUUGGGUCCUCUAA [Lasorian] and write its reported apparent KD of K4 kissing-loop reporter.
312

Look up and state reported apparent KD of K4 kissing-loop reporter for UGCUUUAGAAUACAAGGUAUUUACACUGAUACCAGUCAGUUAAAUGACCCUUGGCAGCAGUGUCAGUGAUGUUGACACAACACAU [Theo A Ex t4]
180

Tell us which apparent KD of K4 kissing-loop reporter value is on record for UGAUAGGACAGAAGGAGCGGGAGUGAUGUUCCCAAAUGGAUAGGUCGACAAAGUCGACCCUCCCAGGUAGGUCGCUGUCCUAUCU [ArgBX 7 #SwitchBubble #StaticStem]
219

Answer with the recorded apparent KD of K4 kissing-loop reporter for the sequence listed here: UGACUACAAGGAAAAUAAUCCUAGUGAUGUUAGGAUAUGCUGAUAAGCAGAAGGAACUGAGAUCGAAAGAUCUCAAAUGUAGUCU [FmnAX 27 Mat Inspired #SwitchBubble #StaticStem #K4Early]
87.2

Measured values drawn from the supplement of paper PMC9170038 for this set.
